Provide the reported pEC50 of each item.
system: L. major promastigotes; assay: Flow cytometer-based growth inhibition and cytotoxicity assay; conditions: Leishmania major, 48 h, read-out: L. major promastigote EC50 (AVE±SD) Confirmation Flow Cytometry
Numbers only, as −log10 of the molar value.

// below: answered compounds
[[record]]
compound = "COc1cccc2c(=O)c(C/C=C(/C)Cl)c(C)[nH]c12 [CID 760847]"
readout_label = "pEC50"
experimental_value = 6.70

[[record]]
compound = "Cc1ccc(S(=O)(=O)c2ccc(Oc3cccc(C)c3)cc2)cc1 [CID 786799]"
readout_label = "pEC50"
experimental_value = 5.65

[[record]]
compound = "CCN(CC)C(=S)SSC(=S)N(CC)CC [Disulfiram]"
readout_label = "pEC50"
experimental_value = 6.72


// for each compound below, give its pEC50
1. CN(C)CCOc1ccccc1Cc1ccccc1 [Phenytoloxamine, reference compound]
2. N[C@H](C(=O)O)[C@@H]1CC(Cl)=NO1 [Acivicin, reference compound]
3. O=C1C2ON(c3ccc(Br)cc3)C(c3ccccn3)C2C(=O)N1C1CCCCC1 (stereo not shown) [CID 2946668]
4. NC(=O)c1cn([C@@H]2O[C@H](CO)[C@@H](O)[C@H]2O)c2ncnc(N)c12 [Sangivamycin, reference compound]

1. 6.52
2. 7.40
3. 6.46
4. 6.85

* * *

system: MDA-MB-231; assay: Mammalian cell line specificity assay (alamar blue); assay type: cell-based, human; conditions: Homo sapiens, MDA-MB-231; 44–46 h, alamar blue; read-out: MDA EC50 (AVE±SD)
readout_label: EC50

// below: answered compounds
[[record]]
compound = "CN(C)CCOc1ccccc1Cc1ccccc1 [Phenytoloxamine, reference compound]"
readout_label = "EC50"
experimental_value = "> 50 µM"

[[record]]
compound = "C[C@@H]1[C@H](O)[C@@H](C)/C=C/C=C/C=C/C=C/C=C/C=C/C=C/[C@H](O[C@@H]2O[C@H](C)[C@@H](O)[C@H](N)[C@@H]2O)C[C@@H]2O[C@](O)(C[C@@H](O)C[C@@H](O)[C@H](O)CC[C@@H](O)C[C@@H](O)CC(=O)O[C@H]1C)C[C@H](O)[C@H]2C(=O)O [Amphotericin B, reference compound]"
readout_label = "EC50"
experimental_value = "> 50 µM"

[[record]]
compound = "N[C@H](C(=O)O)[C@@H]1CC(Cl)=NO1 [Acivicin, reference compound]"
readout_label = "EC50"
experimental_value = "> 50 µM"

[[record]]
compound = "CCN(CC)C(=S)SSC(=S)N(CC)CC [Disulfiram]"
readout_label = "EC50"
experimental_value = "> 50 µM"


Field: next compound
Note to self: EC50 recorded for C[C@@]1(CO)[C@H](O)CC[C@@]2(C)[C@H]1CC[C@H]1C[C@@H]3C[C@@]12CC[C@]3(O)CO [Aphidicolin, reference compound] was > 50 µM

* * *

Provide the reported EC50 of each item.
system: A549; assay: Mammalian cell line specificity assay (alamar blue); format: cell-based, human; details: Homo sapiens, A549, read-out: EC50 Ave ± SD, A549

[[record]]
compound = "NC(=O)c1cn([C@@H]2O[C@H](CO)[C@@H](O)[C@H]2O)c2ncnc(N)c12 [Sangivamycin, reference compound]"
readout_label = "EC50"
experimental_value = "72 nM"


Field: next compound
Note to self: EC50 recorded for CC(C)(C)c1ccc(C(=O)C2CCCN(C3CCC3)C2)cc1 (centres unmarked) was > 5000 nM

* * *

test system: L. major promastigotes; assay: L. major promastigote drug susceptibility assay (alamar blue, 384-well); format: cell-based, Leishmania major; conditions: Leishmania major, read-out: EC50 Ave ± SD, Lm
readout_label: EC50 (nM)
Answers are plain numbers, in nM.

// for each compound below, give its EC50
1. Cc1[nH]c2c(Cl)cccc2c(=O)c1CN1CCCC1
2. Cc1ccc(OCCCCn2ccnc2)c(Cl)c1
3. COc1cccc2c(=O)c(C/C=C(/C)Cl)c(C)[nH]c12
4. CCN(CC)CCN(C)C1CCC(c2ccccc2)CC1 (stereo not drawn)
5. O=C1C2ON(c3ccc(Br)cc3)C(c3ccccn3)C2C(=O)N1C1CCCCC1 (stereo not drawn)
6. Cc1cc(C)nc(/N=C2\SNSC2Cl)c1 (stereo not drawn)

1. 392
2. 133
3. 108
4. 827
5. 515
6. 353

* * *

system: IMR-90; experiment: Mammalian cell line specificity assay (alamar blue); type: cell-based, human; details: Homo sapiens, IMR-90; 44–46 h, alamar blue; read-out: IMR90 EC50 (AVE±SD)
pEC50: −log10 of the molar value.
readout_label: pEC50

// below: answered molecules
[[record]]
molecule = "CN(C)CCOc1ccccc1Cc1ccccc1 [Phenytoloxamine, reference compound]"
experimental_value = "< 4.30"

[[record]]
molecule = "C[C@@]1(CO)[C@H](O)CC[C@@]2(C)[C@H]1CC[C@H]1C[C@@H]3C[C@@]12CC[C@]3(O)CO [Aphidicolin, reference compound]"
experimental_value = "< 4.30"


Field: next molecule
pEC50 for IMR-90 with input CCN(CC)C(=S)SSC(=S)N(CC)CC equals < 4.30
